Tested on: Fusarium graminearum
Assay remarks: microbe, parasite or virus in culture
Assay type: cell-based
Conditions: 50 μM
Measured property: % Inhibition of fungal growth at 50 μM (%)

{"Compound": "CC(Cc1cc(Cl)ccc1Cl)NC(=O)c1c(C(F)F)nn(C)c1F (centres unmarked) [Example 92]", "Measured property": "% Inhibition of fungal growth at 50 μM", "Recorded result": 100}
{"Compound": "Cn1nc(C(F)F)c(C(=O)N(C2CC2)C2CCCC2c2ccc(Cl)cc2Cl)c1F (centres unmarked) [Example 211]", "Measured property": "% Inhibition of fungal growth at 50 μM", "Recorded result": 100}
{"Compound": "CN(CCc1cc(Cl)ccc1Cl)C(=S)c1c(C(F)F)nn(C)c1F [Example 96]", "Measured property": "% Inhibition of fungal growth at 50 μM", "Recorded result": 82}
{"Compound": "Cn1nc(C(F)F)c(C(=O)NC2CC2c2ccc(F)cc2)c1F (centres unmarked) [Example 220]", "Measured property": "% Inhibition of fungal growth at 50 μM", "Recorded result": 81}
{"Compound": "CN(CCc1ccccc1C(F)(F)F)C(=O)c1c(C(F)F)nn(C)c1F [Example 123]", "Measured property": "% Inhibition of fungal growth at 50 μM", "Recorded result": 100}
